Biological target: recombinant full-length USP7 (Homo sapiens, UniProt Q93009)
Construct: A 25 μl reaction volume containing recombinant full-length USP7 (62 pM)
Sequence (Q93009 whole entry): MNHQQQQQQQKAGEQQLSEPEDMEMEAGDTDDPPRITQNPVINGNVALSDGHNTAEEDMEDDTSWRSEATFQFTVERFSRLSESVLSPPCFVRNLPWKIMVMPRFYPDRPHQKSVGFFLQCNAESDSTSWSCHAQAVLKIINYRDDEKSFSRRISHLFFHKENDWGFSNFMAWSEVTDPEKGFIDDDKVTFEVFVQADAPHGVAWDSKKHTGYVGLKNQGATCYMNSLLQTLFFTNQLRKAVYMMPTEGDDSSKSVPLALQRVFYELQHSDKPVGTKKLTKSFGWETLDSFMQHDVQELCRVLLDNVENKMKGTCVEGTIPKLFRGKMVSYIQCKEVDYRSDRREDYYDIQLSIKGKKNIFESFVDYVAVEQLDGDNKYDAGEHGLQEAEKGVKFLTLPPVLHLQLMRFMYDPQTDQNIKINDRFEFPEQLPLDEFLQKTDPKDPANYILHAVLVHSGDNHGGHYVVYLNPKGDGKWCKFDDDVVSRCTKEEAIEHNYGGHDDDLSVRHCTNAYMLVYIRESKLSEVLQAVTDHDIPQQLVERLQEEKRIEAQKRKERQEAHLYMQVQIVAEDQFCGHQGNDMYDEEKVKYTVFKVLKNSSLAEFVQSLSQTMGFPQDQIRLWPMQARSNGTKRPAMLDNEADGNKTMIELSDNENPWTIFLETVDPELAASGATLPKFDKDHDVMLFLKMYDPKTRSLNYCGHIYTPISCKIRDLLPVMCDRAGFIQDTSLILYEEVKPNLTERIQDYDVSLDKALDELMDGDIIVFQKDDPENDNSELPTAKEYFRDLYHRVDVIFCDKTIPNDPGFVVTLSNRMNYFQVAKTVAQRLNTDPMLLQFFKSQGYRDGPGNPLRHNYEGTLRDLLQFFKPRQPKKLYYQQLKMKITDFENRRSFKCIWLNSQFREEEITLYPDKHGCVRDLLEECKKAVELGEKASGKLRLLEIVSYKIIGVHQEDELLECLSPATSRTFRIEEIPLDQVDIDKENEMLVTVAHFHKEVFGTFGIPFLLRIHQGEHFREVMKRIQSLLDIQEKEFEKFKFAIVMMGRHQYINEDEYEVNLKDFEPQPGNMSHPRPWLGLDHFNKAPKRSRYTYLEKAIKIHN
Assay: USP7-mediated ubiquitin-rhodamine cleavage assay
Assay type: biochemical
Settings: recombinant full-length USP7 62 pM; ubiquitin-rhodamine 100 nM; 30-minute incubation with compound, 1 hour reaction at room temperature; read-out: Potency: USP7 IC50
Counter-ions that a name gives are not always drawn.
PARAMETER MEASURED: IC50

| MOLECULE | PARAMETER MEASURED | VAL |
| --- | --- | --- |
| Cc1cc(Cl)cc(-c2ccnc3cc(CN4C(=O)CCC4=O)sc23)c1OC1CCNCC1 | IC50 | < 1 µM |
| Cn1nc2c(c1C1Cc3cc(Cl)cc(-c4ccnc5cc(CN6C(=O)C7C(C6=O)C7(C)C)sc45)c3O1)CNCC2 (stereo not shown) [Example 387, dihydrochloride] | IC50 | < 1 µM |
| CCC(O)c1cc2ncnc(-c3cc(Cl)cc(C)c3O[C@H]3CCCNC3)c2s1 (stereo partly shown) | IC50 | 1 to 10 µM |
| Cc1cc(Cl)cc(-c2ccnc3cc(CN4C(=O)OC(C)(C)C4=O)sc23)c1O[C@@H]1CNC[C@@H]1F | IC50 | < 1 µM |

====

Readings of IC50 for the listed compounds
Target: recombinant full-length USP7 (Homo sapiens, UniProt Q93009)
Construct: A 25 μl reaction volume containing recombinant full-length USP7 (62 pM)
Assay: USP7-mediated ubiquitin-rhodamine cleavage assay
Assay type: biochemical
Settings: recombinant full-length USP7 62 pM; ubiquitin-rhodamine 100 nM; 30-minute incubation with compound, 1 hour reaction at room temperature; read-out: Potency: USP7 IC50
Counter-ions that a name gives are not always drawn.
PARAMETER MEASURED: IC50

| COMPOUND | VAL |
| --- | --- |
| Cc1cc(Cl)cc(-c2ccnc3cc(CN4C(=O)CCC4=O)sc23)c1O[C@H]1C[C@@H]2CN[C@H]1C2 | < 1 µM |
| Cc1cc(Cl)cc(-c2ccnc3cc(CN4C(=O)C5C(C4=O)C5(C)C)sc23)c1OC1CCNC1(C)C (stereo not drawn) | < 1 µM |
| Cc1cc(Cl)cc(-c2ccnc3cc(CN4C(=O)C5C(C4=O)C5(C)C)sc23)c1O[C@H]1CC[C@H](N)C1 (stereo partly drawn) [Example 394, dihydrochloride] | < 1 µM |
| Cc1cc(Cl)cc(-c2ncnc3cc(Cn4c(=O)ccn(C)c4=O)sc23)c1OC1CCNCC1 | < 1 µM |
| Cc1cc(Cl)cc(-c2ccnc3cc(CO)sc23)c1O[C@@H]1CC[C@@H](N)C1 | 1 to 10 µM |
| Cc1cc(Cl)cc(-c2ccnc3cc(CO)sc23)c1O[C@H]1CNC[C@H]1F | 10 to 30 µM |
| Cc1cc(Cl)cc(-c2ccnc3cc(CCN4C(=O)c5ccccc5S4(=O)=O)sc23)c1O[C@@H]1CNC[C@@H]1F | 10 to 30 µM |
| CCC(O)c1cc2nccc(-c3cc(Cl)cc(C)c3O[C@H]3CCNC3)c2s1 (stereo partly drawn) | 1 to 10 µM |
| Cc1cc(Cl)cc(-c2ccnc3cc(CO)sc23)c1O[C@@H]1CC[C@@H](N(C)C)C1 | 10 to 30 µM |
| Cc1cc(Cl)cc(-c2ccnc3cc(CN4C(=O)C5CCC5C4=O)sc23)c1O[C@@H]1CN(C(=O)OC(C)(C)C)C[C@@H]1F (stereo partly drawn) | < 1 µM |
| CCN1C[C@H]2C[C@@H]1[C@H](Oc1c(C)cc(Cl)cc1-c1ccnc3cc(CN4C(=O)CCC4=O)sc13)C2 | < 1 µM |
| Cc1cc(Cl)cc(-c2ccnc3cc(CN4C(=O)CCC4=O)sc23)c1O[C@@H]1CN[C@@H](C)C1 | < 1 µM |
| Cc1cc(Cl)cc(-c2ccnc3cc(CN4C(=O)CCC4=O)ccc23)c1O[C@@H]1CNC[C@@H]1F | 10 to 30 µM |
| Cc1cc(Cl)cc(-c2ccnc3cc(CO)sc23)c1O[C@@H]1CN[C@@H](C(C)(C)O)C1 | 10 to 30 µM |
| Cc1cc(Cl)cc(-c2ccnc3cc(CN4C(=O)C5C(C4=O)C5(C)C)sc23)c1O[C@H]1CCCN[C@H]1C (stereo partly drawn) | < 1 µM |
| Cc1cc(Cl)cc(-c2ccnc3cc(CN4C(=O)C5C(C4=O)C5(C)C)sc23)c1O[C@@H]1C[C@H]2CN[C@@H]1C2 (stereo partly drawn) | < 1 µM |
| Cc1cc(Cl)cc(-c2ccnc3cc(CN4C(=O)C5C(C4=O)C5(C)C)sc23)c1OC1CNCC1(C)F (stereo not drawn) [Example 372, dihydrochloride] | < 1 µM |
| Cc1cc(C#N)cc(-c2ccnc3cc(CN4C(=O)CCC4=O)sc23)c1OCC1(C#N)CNC1 | < 1 µM |
| Cc1cc(Cl)cc(-c2ncnc3cc(CN4C(=O)CCC4=O)sc23)c1O[C@@H]1CNC[C@@H]1F | 1 to 10 µM |
| Cc1cc(Cl)cc(-c2ccnc3cc(CCOC4=NS(=O)(=O)c5ccccc54)sc23)c1O[C@@H]1CNC[C@@H]1F | 10 to 30 µM |
| CCC(O)c1cc2nccc(-c3cc(Cl)cc(C)c3OC3CCN(C)CC3)c2s1 (stereo not drawn) | 1 to 10 µM |
| CCC(O)c1cc2ncnc(-c3cc(Cl)cc(C)c3OC3CCNCC3)c2s1 (stereo not drawn) | 1 to 10 µM |
| Cc1cc(Cl)cc(-c2ncnc3cc(CN4C(=O)CSC4=O)sc23)c1OC1CCNCC1 | 1 to 10 µM |
| Cc1cc(Cl)cc(-c2ccnc3cc(CO)sc23)c1O[C@@H]1CCC[C@@H]1N | 10 to 30 µM |
| Cc1cc(Cl)cc(-c2ccnc3cc(CN4C(=O)C5C(C4=O)C5(C)C)sc23)c1O[C@@H]1CCNC[C@H]1F (stereo partly drawn) | < 1 µM |
| Cc1cc(Cl)cc(-c2ccnc3cc(Cn4c(=O)ccn(CC(F)(F)F)c4=O)sc23)c1O[C@@H]1CNCC[C@H]1C | < 1 µM |
| Cc1cc(Cl)cc(-c2ccnc3cc(Cn4c(=O)ccn(CC(F)(F)F)c4=O)sc23)c1O[C@H]1C[C@H](N2CCOCC2)C1 | < 1 µM |
| Cc1cc(C#N)cc(-c2ccnc3ccsc23)c1OCC1(C#N)CNC1 | < 1 µM |
| CCC(O)c1cc2nccc(-c3cc(Cl)cc(C)c3OC3CCNC3=O)c2s1 (stereo not drawn) | 10 to 30 µM |
| CCC(O)c1cc2nccc(-c3cc(Cl)cc(C)c3OC3CCNCC3)c2s1 (stereo not drawn) | 1 to 10 µM |

====

Molecular target: recombinant full-length USP7 (Homo sapiens, UniProt Q93009)
Construct: A 25 μl reaction volume containing recombinant full-length USP7 (62 pM)
Test: USP7-mediated ubiquitin-rhodamine cleavage assay
Assay type: biochemical
Details: recombinant full-length USP7 62 pM; ubiquitin-rhodamine 100 nM; 30-minute incubation with compound, 1 hour reaction at room temperature; read-out: Potency: USP7 IC50
Readings of IC50 for the listed molecules

| MOLECULE | IC50 |
| --- | --- |
| Cc1cc(Cl)cc(-c2ccnc3cc(CN4C(=O)c5ccncc5C4=O)sc23)c1O[C@H]1CCCNC1 | < 1 µM |
| Cc1cc(Cl)cc(-c2ccnc3cc(CN4C(=O)CCC4=O)sc23)c1O[C@@H]1CNCC[C@@H]1C | < 1 µM |
| Cc1cc(Cl)cc(-c2ccnc3cc(CN4C(=O)CCC4=O)sc23)c1OC1CCNC(C)(C)C1 (stereo not shown) | < 1 µM |
| CCC(O)c1cc2nccc(-c3cc(Cl)cc(C)c3OCC3(C)CNC3)c2s1 (stereo not shown) | 1 to 10 µM |

====

Target: recombinant full-length USP7 (Homo sapiens, UniProt Q93009)
Construct: A 25 μl reaction volume containing recombinant full-length USP7 (62 pM)
Assay: USP7-mediated ubiquitin-rhodamine cleavage assay
Type: biochemical
Conditions: recombinant full-length USP7 62 pM; ubiquitin-rhodamine 100 nM; 30-minute incubation with compound, 1 hour reaction at room temperature; read-out: Potency: USP7 IC50

| COMPOUND | EXPERIMENTAL SYSTEM | IC50 |
| --- | --- | --- |
| CCC(O)c1cc2nccc(-c3cc(Cl)cc(C)c3O[C@@H]3CN[C@H](C(C)(C)O)C3)c2s1 (stereo partly shown) | recombinant full-length USP7 (Homo sapiens, UniProt Q93009) | 1000 to 10000 nM |
| Cc1cc(Cl)cc(-c2ccnc3cc(CN4C(=O)CCN(C)C4=O)sc23)c1OC1CCNCC1 | recombinant full-length USP7 (Homo sapiens, UniProt Q93009) | < 1000 nM |
| Cc1cc(Cl)cc(-c2ccnc3cc(Cn4c(=O)ccn(C)c4=O)sc23)c1OC1CNCC(C)(C)C1 (stereo not shown) | recombinant full-length USP7 (Homo sapiens, UniProt Q93009) | < 1000 nM |
| Cc1cc(Cl)cc(-c2ccnc3c(F)c(CN4C(=O)CCC4=O)sc23)c1O[C@H]1CCCNC1 | recombinant full-length USP7 (Homo sapiens, UniProt Q93009) | < 1000 nM |
| Cc1cc(Cl)cc(-c2ncnc3cc(CN4C(=O)C5C(C4=O)C5(C)C)sc23)c1OC1CCNC1(C)C (stereo not shown) | recombinant full-length USP7 (Homo sapiens, UniProt Q93009) | < 1000 nM |
| Cc1cc(Cl)cc(-c2ccnc3cc(CN4C(=O)CCC4=O)sc23)c1OC1CCN(C2COC2)CC1 | recombinant full-length USP7 (Homo sapiens, UniProt Q93009) | 1000 to 10000 nM |
| CC(=O)NCc1cc2nccc(-c3cc(Cl)cc(C)c3O[C@@H]3CNC[C@@H]3F)c2s1 | recombinant full-length USP7 (Homo sapiens, UniProt Q93009) | < 1000 nM |

Cited source for all entries: patent US10722514B2
